Measured Ki of individual entries
Target: AChE (Electrophorus electricus, UniProt O42275)
Sequence (O42275 24-633): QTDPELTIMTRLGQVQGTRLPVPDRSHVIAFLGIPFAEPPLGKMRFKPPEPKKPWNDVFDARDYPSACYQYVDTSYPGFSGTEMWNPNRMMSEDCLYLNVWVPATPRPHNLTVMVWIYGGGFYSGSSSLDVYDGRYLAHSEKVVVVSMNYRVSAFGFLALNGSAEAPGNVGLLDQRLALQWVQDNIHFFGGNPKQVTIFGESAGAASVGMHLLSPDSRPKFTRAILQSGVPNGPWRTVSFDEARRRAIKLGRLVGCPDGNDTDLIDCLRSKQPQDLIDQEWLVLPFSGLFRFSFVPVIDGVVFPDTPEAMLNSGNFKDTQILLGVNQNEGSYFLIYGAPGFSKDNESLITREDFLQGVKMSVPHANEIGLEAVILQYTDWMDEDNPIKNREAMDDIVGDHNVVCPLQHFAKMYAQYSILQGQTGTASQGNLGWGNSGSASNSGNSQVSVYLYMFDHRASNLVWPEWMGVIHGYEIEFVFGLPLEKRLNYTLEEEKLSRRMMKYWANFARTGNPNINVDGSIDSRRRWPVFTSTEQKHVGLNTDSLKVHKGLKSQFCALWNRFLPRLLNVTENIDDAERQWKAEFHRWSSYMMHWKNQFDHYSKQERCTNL
Experiment: biochemical
Assay type: biochemical
Settings: from Lineweaver-Burk graphs; mean ± SD, triplicate
Use nM as the unit, but write only the number.

Worked set:
CCCN(CCC)C(=O)c1ccc2nc(-c3ccco3)oc2c1 :: 38.5
O=C(c1ccc2nc(-c3ccccc3)oc2c1)N1CCCCC1 :: 18.6
O=C(c1ccc2nc(-c3ccco3)oc2c1)N1CCCCC1 :: 30.7

Okay, next one:
Noted for CCCN(CCC)C(=O)c1ccc2nc(-c3ccncc3)oc2c1 : its Ki reads 50

###

Molecular target: AChE (Electrophorus electricus, UniProt O42275)
Test: biochemical
Type: biochemical
Binarize IC50 at 30 nM; below is 1.0, at or above is 0.0.

O=C(c1ccc2nc(-c3ccccc3)oc2c1)N1CCCCC1 [Compound 11] :: 1.0
CN(C)C(=O)c1ccc2nc(-c3ccco3)oc2c1 [Compound 37] :: 0.0

// query Item CCCN(CCC)C(=O)c1ccc2nc(-c3ccco3)oc2c1 [Compound 39] : IC50 beneath 30 nM, strictly?
// result 1.0

// query In the record for CN(C)C(=O)c1ccc2nc(-c3ccccc3)oc2c1 [Compound 7] , is IC50 less than 30 nM?
// result 0.0

// query Could you please tell me whether IC50 recorded for O=C(c1ccc2nc(-c3ccc[nH]3)oc2c1)N1CCCCC1 [Compound 35] is less than 30 nM?
// result 1.0

// query Below 30 nM on IC50? Entry CCN(CC)C(=O)c1ccc2nc(-c3ccccc3)oc2c1 [Compound 8]
// result 0.0

// query Consider the compound O=C(c1ccc2nc(-c3ccco3)oc2c1)N1CCCCC1 [Compound 41] . Is its IC50 strictly less than 30 nM?
// result 1.0

// query I wonder whether CN(C)C(=O)c1ccc2nc(-c3ccncc3)oc2c1 [Compound 25] has IC50 below 30 nM. Can you tell?
// result 0.0

// query A record lists O=C(c1ccc2nc(-c3cccs3)oc2c1)N1CCCC1 [Compound 46] . Is its IC50 below 30 nM?
// result 0.0

// query Strictly below 30 nM in IC50? O=C(c1ccc2nc(-c3ccco3)oc2c1)N1CCOCC1 [Compound 42]
// result 1.0
